# TARGET_UNDER_TEST: CYP3A5 (Homo sapiens)
# Sequence (P20815 whole entry): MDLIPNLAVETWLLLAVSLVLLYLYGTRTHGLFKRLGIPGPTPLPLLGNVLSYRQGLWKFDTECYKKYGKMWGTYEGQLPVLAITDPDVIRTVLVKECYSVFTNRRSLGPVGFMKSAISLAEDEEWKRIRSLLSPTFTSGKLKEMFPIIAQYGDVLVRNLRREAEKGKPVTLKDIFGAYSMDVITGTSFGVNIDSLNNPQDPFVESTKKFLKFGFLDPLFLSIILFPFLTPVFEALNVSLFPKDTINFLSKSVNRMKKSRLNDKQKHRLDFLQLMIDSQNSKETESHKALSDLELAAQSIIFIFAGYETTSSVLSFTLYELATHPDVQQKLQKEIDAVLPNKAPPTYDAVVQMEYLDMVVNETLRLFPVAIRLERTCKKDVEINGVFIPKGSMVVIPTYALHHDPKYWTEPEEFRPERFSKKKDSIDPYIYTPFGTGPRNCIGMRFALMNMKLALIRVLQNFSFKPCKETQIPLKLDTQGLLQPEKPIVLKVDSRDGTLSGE
# MEASUREMENT_DESCRIPTION: Activity at recombinant CYP3A5 (unknown origin) assessed as half life at 1 uM by LC-MS analysis
# Assay type: ADME
PROPERTY_LABEL: half-life at 1 µM (min)

(1) CCCC1O[C@@H]2C[C@H]3[C@@H]4CCC5=CC(=O)C=C[C@]5(C)[C@H]4[C@@H](O)C[C@]3(C)[C@]2(C(=O)CO)O1 (stereo partly drawn) [BUDESONIDE]
(2) CC1(C)O[C@@H]2C[C@H]3[C@@H]4CCC5=CC(=O)C=C[C@]5(C)[C@@]4(F)[C@@H](O)C[C@]3(C)[C@]2(C(=O)CO)O1 [TRIAMCINOLONE ACETONIDE]
// which entry has the larger half-life at 1 µM value, 1 or 2 ? Kindly state the label of the option you pick.
2
